- assay_overview: xn = mol fraction of the nth substance listed
- experimental_parameters: 293.15 K; 100 kPa; Liquid; Concentric cylinders viscometry; x2 = 0.25
Quick reference: viscosity of the listed items.
readout_type: viscosity (mPa·s)

molecule	value_measured
CCCCn1cc[n+](C)c1.N#C[S-] [1-butyl-3-methylimidazolium thiocyanate] + CCCC[n+]1ccn(C)c1.O=S(=O)([N-]S(=O)(=O)C(F)(F)F)C(F)(F)F	80.92
CC(=O)[O-].CCCCn1cc[n+](C)c1 [1-butyl-3-methylimidazolium acetate] + CCCC[n+]1ccn(C)c1.O=S(=O)([N-]S(=O)(=O)C(F)(F)F)C(F)(F)F	265.43
CCCCn1cc[n+](C)c1.F[P-](F)(F)(F)(F)F [1-butyl-3-methylimidazolium hexafluorophosphate] + CCCC[n+]1ccn(C)c1.O=S(=O)([N-]S(=O)(=O)C(F)(F)F)C(F)(F)F	196.39
CCCCn1cc[n+](C)c1.O=S(=O)([O-])C(F)(F)F [1-butyl-3-methylimidazolium trifluoromethanesulfonate] + CCCC[n+]1ccn(C)c1.O=S(=O)([N-]S(=O)(=O)C(F)(F)F)C(F)(F)F	90.69
CCCCn1cc[n+](C)c1.COP(=O)([O-])OC [1-butyl-3-methyl-1H-imidazolium dimethylphosphate] + CCCC[n+]1ccn(C)c1.O=S(=O)([N-]S(=O)(=O)C(F)(F)F)C(F)(F)F	618.01
